Tested on: VDR:RXRa (NR concentration 270 nM, RXRa partner concentration 90 nM)
Test: PBM binding z-score (relative to random genomic background probes); higher = stronger binding; sequences stand for … in GC…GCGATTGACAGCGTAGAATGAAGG
Lab note: anything with PBM binding z-score at or over 2 counts as y; the rest go in n.

As a guide, the following entries are already answered.
                        sequence_text                                    target  label
0  TCTAGCAGGCCAGAGGGTCACTCTAGAGGTACGG  VDR:RXRa (NR concentration 270 nM, RXRa partner concentration 90 nM)      n
1  CCTTACGGGTCAGTCCAGGTTATAGCATCGGAGT  VDR:RXRa (NR concentration 270 nM, RXRa partner concentration 90 nM)      y

Is the recorded value of PBM binding z-score equal to or greater than 2 for this sequence? `CCAACTAGGTCATCCAGGACAGTGAATACATTGA` y

Decide: PBM binding z-score of `CAAACTAGGTCAAGAGTTCAAAGTCCGCTTCCCG` >= 2? y

Does PBM binding z-score meet or surpass 2 for `CAAACTAGGTCACAGAGGTCAAGGTCCGTGCGTA` ? y

Decide: PBM binding z-score of `CCTTACAGGTCACTCCAGGTTATAGCATCGGAGT` >= 2? y

Does the sequence `AGAATGAGGTTAATATCAGGGAAACAGAATACAT` have recorded PBM binding z-score that is 2 or more? n

PBM binding z-score >= 2 for `TATTGTAGATCAATAGAGGTTAAGAAAGTGCGCT` ? n

Could you please find out whether `AGTCAAAGTTCACTAGGTAACGTAAGATTCAGCT` has PBM binding z-score that meets 2 or exceeds it? y

====

System: PPARg:RXRa DBDmut IVT, anti-RXR (DBD mutation: RXRa K156A/R161A, NR concentration 270 nM, RXRa partner concentration 90 nM)
Experiment: PBM binding z-score (relative to random genomic background probes); higher = stronger binding; sequences stand for … in GC…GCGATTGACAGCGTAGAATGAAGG
I'd be grateful if you could share measured PBM binding z-score for these entries.
Answers are plain numbers.

Please state PBM binding z-score for every sequence in the list that follows.
1. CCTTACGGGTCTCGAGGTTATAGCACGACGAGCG
2. ATCTCTCGGTAAGACTCAGTTCAGTGAAGAACGC
3. ACTAGTTGGTCGGCTGAGGTCACACACAATTCGG

1: -0.507; 2: 0.0945; 3: 0.828

Record PBM binding z-score for all entries; do not skip any.
1. ACTAGCAGGCCAAGTTTGGGTCACTCCAACAAAG
2. ATCTCTAGGTAACTAAGTTCAGTGAATGCCGAAC
3. TTACTAAGGTGAAAGGTCGTTGATGCACGCCTTG

1. 0.7
2. 2.67
3. 4.24

Lab note: each sequence below needs its PBM binding z-score filled in.
1. CCTACTGGGCCAAGGTCATCGATCAGTCAAAGCA
2. AGAATGAGGATATTAAGATCAGGGAATTGCGGTC
3. TCTTGTACATCAAAGGTTAAGAAAGCCGAAGCCT
4. CGTTCAAGGTCAGAGAGGTCAGTGAATGCCGAGT
5. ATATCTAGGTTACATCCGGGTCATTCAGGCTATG
6. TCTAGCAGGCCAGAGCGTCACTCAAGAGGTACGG

1. 4
2. -0.168
3. 1.6
4. 3.67
5. 7.39
6. 0.578

Give one value of PBM binding z-score per listed sequence.
1. TCTTGTAGATCAAAGGTTAACAAAGCCGAAGCCT
2. ATCTCTAGGTAAAGATAGTACAGTGAATGCAAAT
3. CGAACTAGGGCATGAGTTGATAGCAAATGCCGAT
4. GGAACGAGGGCAAGTTGATAGCCGAGTTTGATGG
5. CCTACTGGGCCATCAGGACATTGATATCAACGTT

1: 2.15; 2: 1.46; 3: 7.01; 4: 3.6; 5: 3.58
